B1: C22orf15 (parent)
chain: PRGRAHLLPNPYQQDFLGLPEELR

# Variants of: B1
# method.summary: protein stability index of a GFP-peptide fusion (GPS, HEK-293T) (PSI 1-6); higher = more stable;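 further: lentivirally expressed fusions sorted by FACS into six bins by GFP to DsRed ratio, PSI derived from sequencing read proportions per bin multiplied by bin number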
# test.context: c terminus: a fixed tail appended
reported.endpoint: protein stability index

Sample records with protein stability index:
L23T; 3.94
P20D; 4.07

Continue with the next variant.
Return reported protein stability index; argument: "G18T" 4.05
